Reference source for all entries: ChEMBL document CHEMBL1132150

Hi there, I'd appreciate the recorded Selectivity for every entry that follows.
- ASSAY_PROCEDURE: Selectivity determined by Ki of alpha 2 receptor / Ki of PNMT
Numbers only.

[[record]]
compound = "CC1Cc2ccccc2CN1 (centres undefined)"
value_reported = 0.36


Quick batch: Selectivity for everything below.
1. c1ccc2c(c1)CCNC2
2. CS(=O)(=O)c1ccc2c(c1)CNC(C(F)(F)F)C2 (centres undefined)
3. CS(=O)(=O)c1ccc2c(c1)CNC(CO)C2 (centres undefined)
4. COc1ccc2c3c([nH]c2c1)C=NCC3 [CGS-19281A]

-- reply
1. 0.035
2. 110
3. 1000
4. 4.4
